Test system: ATF4 translation (ATF4 pathway), SH-SY5Y-ATF4-NanoLuc cells
Assay details: ATF4 cell based assay (ATF4 5'-UTR NanoLuc luciferase reporter, Thapsigargin induced cellular stress)
Experimental setup: SH-SY5Y-ATF4-NanoLuc cells challenged with Thapsigargin for 14-18 hours; average of two or more experimental runs; read-out: average ATF4 pathway inhibitory activity (IC50)
Readout type: IC50

// worked examples, IC50 included
Molecule	System name	Readout type	Observed
O=C(COc1ccc(Cl)cc1)NCC1CCN(C(=O)COc2ccc(Cl)nc2)C1 (racemic) [Example 20]	ATF4 translation (ATF4 pathway), SH-SY5Y-ATF4-NanoLuc cells	IC50	1000 to 10000 nM
O=C(COc1ccc(Cl)cc1)NCC1CCN(CCCOc2ccc(F)cc2)C1 (stereo not shown) [Example 49]	ATF4 translation (ATF4 pathway), SH-SY5Y-ATF4-NanoLuc cells	IC50	101 to 1000 nM
O=C(COc1ccc(Cl)cc1)NC1CCC2(CC1)CCN(C(=O)COc1ccc(Cl)cc1)C2 (stereo not shown) [Example 23]	ATF4 translation (ATF4 pathway), SH-SY5Y-ATF4-NanoLuc cells	IC50	< 100 nM

Would you kindly look at the next entry?
Briefly, IC50 measured for O=C(COc1ccc(Cl)cc1)NCC1CCN(C(=O)C2Cc3cc(Cl)ccc3O2)C1 (stereo not shown) [Example 9] : 101 to 1000 nM

---

Test system: ATF4 translation (ATF4 pathway), SH-SY5Y-ATF4-NanoLuc cells
Assay details: ATF4 cell based assay (ATF4 5'-UTR NanoLuc luciferase reporter, Thapsigargin induced cellular stress)
Experimental setup: SH-SY5Y-ATF4-NanoLuc cells challenged with Thapsigargin for 14-18 hours; average of two or more experimental runs; read-out: average ATF4 pathway inhibitory activity (IC50)
Procedure: The ATF4 reporter assay measures the effect of Thapsigargin induced cellular stress on ATF4 expression. […] The ATF4 5′-UTR contains two open reading frames which mediate the cellular stress-dependent translation of the reporter gene. Clones stably expressing the reporter construct were isolated and selected based on the luminescence response to thapsigargin and inhibition of this signal by test compounds. […] The measurement of luciferase produced by the ATF4 constructs was measured as follows. […]
pIC50: −log10 of the molar value.
Readout type: pIC50

// worked examples, pIC50 included
Compound	pIC50
CC1CC(CNC(=O)COc2ccc(Cl)cc2)CN1C(=O)COc1ccc(Cl)cc1 (centres unmarked)	6.00 to 7.00
O=C(COc1ccc(Cl)cc1)NCC1CCN(CCOc2ccc(Cl)nc2)C1 (centres unmarked)	5.00 to 6.00
O=C(COc1ccc(Cl)cc1)NCC1CCN(CCCOc2ccc(Cl)cc2F)C1 (centres unmarked)	> 7.00
O=C(COc1ccc(Cl)cc1)NOC1CCN(C(=O)C2CC2c2ccc(Cl)cc2)C1 (centres unmarked)	6.00 to 7.00
O=C(COc1ccc(C(F)(F)F)cc1)NCC1CCN(CCCOc2ccc(Cl)cc2)C1 (centres unmarked)	> 7.00

Briefly, pIC50 measured for O=C(COc1ccc(Cl)cc1)NCC1CC(=O)N(CCOc2ccc(Cl)cc2)C1 (centres unmarked) : > 7.00

Briefly, pIC50 measured for O=C(COc1ccc(Cl)cc1)NCC1CCN(C(=O)OCCc2ccc(Cl)cc2)C1 (centres unmarked) : > 7.00

Briefly, pIC50 measured for O=C(COc1ccc(Cl)cc1)NCC1CCN(CCCOc2cccc(Cl)c2)C1 (centres unmarked) : 6.00 to 7.00

Briefly, pIC50 measured for O=C(COc1ccc(Cl)cc1)NCC1CC(=O)N(CCCOc2ccc(Cl)cc2)C1 (centres unmarked) : 6.00 to 7.00

Briefly, pIC50 measured for O=C(NCC1CCN(C(=O)COc2ccc(Cl)cc2)C1)C1Cc2cc(Cl)ccc2O1 (centres unmarked) : 6.00 to 7.00

Briefly, pIC50 measured for O=C(NCC1CCN(C(=O)COc2ccc(Cl)cc2)C1)C1CCc2cc(Cl)ccc2O1 (centres unmarked) : > 7.00

Briefly, pIC50 measured for Cc1cc(OCCCN2CCC(CNC(=O)COc3ccc(Cl)cc3)C2)ccc1Cl (centres unmarked) : > 7.00

Briefly, pIC50 measured for O=C(COc1ccc(Cl)cc1)NCC1(F)CCN(C(=O)COc2ccc(Cl)cc2)C1 (centres unmarked) : 6.00 to 7.00

Briefly, pIC50 measured for O=C(COc1ccc(Cl)cc1)N[C@H]1[C@@H]2CN(CCCOc3ccc(Cl)nc3)C[C@@H]21 : 6.00 to 7.00

Briefly, pIC50 measured for O=C(COc1ccc(Cl)c(F)c1)NCC1CCN(CCCOc2ccc(Cl)cc2)C1 (centres unmarked) : > 7.00

Briefly, pIC50 measured for O=C(COc1ccc(Cl)cc1)N[C@H]1[C@@H]2CN(CCCOc3ccc(Cl)cn3)C[C@@H]21 : 6.00 to 7.00

Briefly, pIC50 measured for O=C(COc1ccc(Cl)cc1)NCC1CN(CCCOc2ccc(Cl)cc2)CC1O (centres unmarked) : > 7.00

---

Tested on: ATF4 translation (ATF4 pathway), SH-SY5Y-ATF4-NanoLuc cells
Assay details: ATF4 cell based assay (ATF4 5'-UTR NanoLuc luciferase reporter, Thapsigargin induced cellular stress)
Experimental setup: SH-SY5Y-ATF4-NanoLuc cells challenged with Thapsigargin for 14-18 hours; average of two or more experimental runs; read-out: average ATF4 pathway inhibitory activity (IC50)
Method: The ATF4 reporter assay measures the effect of Thapsigargin induced cellular stress on ATF4 expression. […] The ATF4 5′-UTR contains two open reading frames which mediate the cellular stress-dependent translation of the reporter gene. Clones stably expressing the reporter construct were isolated and selected based on the luminescence response to thapsigargin and inhibition of this signal by test compounds. […] The measurement of luciferase produced by the ATF4 constructs was measured as follows. […]
pIC50: −log10 of the molar value. Where a name gives a salt, the structure may show the parent alone.
Some compounds, each annotated with its measured pIC50.

// worked examples, pIC50 included
Compound	Observed
O=C(COc1ccc(Cl)cc1)NCC1CCN(CCCOc2ccc(Cl)cc2Cl)C1 (stereo not drawn)	6.00 to 7.00
O=C(COc1ccc(Cl)cc1)N1CC2CN(C(=O)COc3ccc(Cl)cc3)CC2C1 (stereo not drawn)	5.00 to 6.00
Cc1cc(Cl)ccc1OCCCN1CCC(CNC(=O)COc2ccc(Cl)cc2)C1 (stereo not drawn)	6.00 to 7.00
CC1(CNC(=O)COc2ccc(Cl)cc2)CCN(CCOc2ccc(Cl)cc2)C1 (stereo not drawn)	> 7.00
O=C(COc1ccc(Cl)cc1)NCC1(F)CCN(CCOc2ccc(Cl)cc2)C1 (stereo not drawn)	6.00 to 7.00

The value of pIC50 recorded for O=C(COc1ccc(Cl)cc1)NCCC1CCN(C(=O)COc2ccc(Cl)cc2)C1 (stereo not drawn) when tested on ATF4 translation (ATF4 pathway), SH-SY5Y-ATF4-NanoLuc cells reads 6.00 to 7.00

The value of pIC50 recorded for CC1C[C@H](CNC(=O)COc2ccc(Cl)cc2)CN1CCCOc1ccc(Cl)cc1 (stereo partly drawn) when tested on ATF4 translation (ATF4 pathway), SH-SY5Y-ATF4-NanoLuc cells reads 6.00 to 7.00

The value of pIC50 recorded for O=C(COc1ccc(Cl)nc1)NCC1CCN(C(=O)COc2ccc(Cl)cc2)C1 (stereo not drawn) when tested on ATF4 translation (ATF4 pathway), SH-SY5Y-ATF4-NanoLuc cells reads 5.00 to 6.00

The value of pIC50 recorded for O=C(COc1ccc(Cl)cc1)NCC1CCN(CCCOc2ccc(Cl)cn2)C1 (stereo not drawn) when tested on ATF4 translation (ATF4 pathway), SH-SY5Y-ATF4-NanoLuc cells reads > 7.00

The value of pIC50 recorded for O=C(COc1ccc(Cl)c(C(F)(F)F)c1)NCC1CCN(CCCOc2ccc(Cl)cc2)C1 (stereo not drawn) when tested on ATF4 translation (ATF4 pathway), SH-SY5Y-ATF4-NanoLuc cells reads > 7.00

The value of pIC50 recorded for O=C(COc1ccc(Cl)cc1)NCC1CCN(C(=O)COc2ccc(Cl)nc2)C1 (single isomer, unassigned) [Example 11] when tested on ATF4 translation (ATF4 pathway), SH-SY5Y-ATF4-NanoLuc cells reads 5.00 to 6.00

The value of pIC50 recorded for O=C(COc1ccc(Cl)cc1)N[C@H]1[C@@H]2CN(CCCOc3ccc(Cl)cc3)C[C@@H]21 when tested on ATF4 translation (ATF4 pathway), SH-SY5Y-ATF4-NanoLuc cells reads > 7.00

The value of pIC50 recorded for Cc1cc(OCC(=O)NCC2CCN(CCCOc3ccc(Cl)cc3)C2)ccc1Cl (stereo not drawn) when tested on ATF4 translation (ATF4 pathway), SH-SY5Y-ATF4-NanoLuc cells reads > 7.00

The value of pIC50 recorded for O=C(COc1ccc(Cl)cc1)N[C@H]1[C@@H]2CN(C(=O)COc3ccc(Cl)cc3)C[C@@H]21 when tested on ATF4 translation (ATF4 pathway), SH-SY5Y-ATF4-NanoLuc cells reads 6.00 to 7.00

The value of pIC50 recorded for O=C(COc1ccc(Cl)cc1)NC1[C@H]2CN(C(CCOc3ccc(Cl)cc3)C(=O)O)C[C@@H]12 (stereo partly drawn) [Example 82, hydrochloride] when tested on ATF4 translation (ATF4 pathway), SH-SY5Y-ATF4-NanoLuc cells reads > 7.00
